System: T47D
Assay: NCI tumour cell line growth inhibition, 48 h
Active and inactive are the calls of the source. Cut-off read from the data, not from the text of the source: active = GI50 up to about 1.1 µM and inactive = higher.
Result category, one only: active, inactive

Please state the recorded outcome for this compound: "O=C(CSc1nc2ccc(I)cc2c(=O)n1Cc1ccccc1)N/N=C/c1ccccc1" inactive

Status in this test for "O=C1/C(=C/c2ccccc2)CCc2ccc(Cl)nc21" ? inactive

For this compound, state the assay outcome: "C(CCc1nnc2c(n1)CCCC2)Cc1nnc2c(n1)CCCC2" inactive

Field: outcome | Entry: "OCCOc1ccc(-c2cc(-c3ccccn3)nc(-c3ccccn3)c2)cc1" active

For C=C1NC(=O)C(CC(C(=O)C(=O)Nc2c(C)cccc2C(C)(C)C)C(=O)c2ccc3ccccc3c2)C(=O)N1 (stereo not given) , what call appears in the results of this test? inactive

Assay outcome for "CCOC(=O)c1cc(Sc2ccc(N)c(C(=O)OCC)c2)ccc1N" : what was it? inactive

// return assay outcome for COC1CCON1C(=O)c1ccccc1 (stereo not given) inactive

Record lookup: outcome of this test for "COC(CN(C)C(=S)Nc1cccc2ccccc12)OC" ? inactive

Tell me the assay call for "CCOC(=O)CNC(=O)CNC(=O)CNC(=O)CNNc1c(OCc2ccccc2)c(=O)c1=O" please. inactive

Hi team, can someone confirm the assay call for CCCCCCCCCCCCCCCCCCNc1nc(=O)n(C2CC(O)C(COP(=O)(O)OCC3OC(n4ccc(N)nc4=O)C(O)C3O)O2)cc1F (stereo not given) ? inactive

Recorded test outcome, item "C=C(Cl)[C@@](Cl)(CBr)CC[C@@H](Br)C(C)(C)Cl" active

Look up the recorded call for COC12C=CC(CC1)C1C(=O)c3c(C)c(C)n(C)c3C(=O)C12 (stereo not given) in this test. inactive

Any idea what this test logged for "O=[N+]([O-])c1ccc(/C=C(/c2ccc([N+](=O)[O-])o2)S(=O)(=O)c2ccccc2)o1" ? inactive

Fill in: this test's call for "O=C(O)COc1c(Cl)cc(Cl)c2cccnc12" is ___ inactive

Field: outcome | Entry: "CCn1c2ccccc2n2c(=O)c3c(c(C#N)c12)CCCC3" inactive

Called result for "O=C(NC(Nc1ccc(F)cc1)(C(F)(F)F)C(F)(F)F)C(C(F)(F)F)C(F)(F)F" inactive

Identify the outcome logged in this assay for the compound shown: "O=C(C=P(c1ccccc1)(c1ccccc1)c1ccccc1)c1cccc(-c2cccc([N+](=O)[O-])c2)c1" inactive

Call for entry "Cc1cc2cc3c(cc2c(-c2ccc(N)cc2)n1)OCO3" : inactive

What call does the record list for COC1(OC)C2(Cl)C(Cl)=C(Cl)C1(Cl)C1c3ccc(C(C)=O)c4cccc(c34)C12 (stereo not given) ? inactive

What did the test return for COC(C)(C)[C@@H](O)[C@H]1C[C@H](C)[C@@]2(CC[C@]3(C)[C@@H]2CC[C@@H]2[C@@]4(C)CC[C@@H](OC(C)=O)C(C)(C)[C@@H]4C[C@@H](OC4OC(COC(C)=O)C(O)C(O)C4O)[C@]23C)O1 (stereo not given in full) ? inactive

* * *

Test system: SN12C
Assay: NCI tumour cell line growth inhibition, 48 h
Active and inactive are the calls of the source. Rule as the data show it: active = GI50 up to about 1.1 µM and inactive = higher. Where a SMILES comes first, the peptide text is derived from it. The star is where a group is joined. Boc = CC(C)(C)OC(=O)*
Respond only with the outcome that fits, drawn from active, inactive

Which outcome was assigned to NC1CC2C3CCC2C1C3=O (centres undefined) in this test? inactive

For this compound, state the assay outcome: "O=C(N/N=C1/C(=O)c2c3ccccc3cc3cccc1c23)c1ccccc1" inactive

Would you mind telling me which call this test gave "C/C(=N\NC(N)=S)c1ccc2c(c1)Sc1ccccc1O2" ? inactive

Test call for this compound, please: "NC(=O)c1ncn(CCN2CCN(C(=O)NCCCCCCNC(=O)N3CCN(CCn4cnc(C(N)=O)c4N)CC3)CC2)c1N" inactive

Record lookup: outcome of this test for "CC1=C(C(=O)Nc2ccccc2)C(c2ccccc2Cl)C(C(=O)Nc2ccccc2)=C(C)N1" ? inactive

Query: recorded result category for C[C@@H](CC(O)C1OC1(C)C)[C@@H]1CC[C@]2(C)C3=CCC4C(C)(C)C(O)CC[C@]4(C)C3CCC12C (some centres undefined) in this test inactive

What is the recorded call for this compound in the test? CSCCC(NC(=O)C(CC(C)C)NC(=O)C1CCCN1C(=O)C(Cc1ccccc1)NC(=O)C(Cc1ccccc1)NC(=O)C(CCC(=O)O)NC(=O)OC(C)(C)C)C(N)=O (centres undefined) (Boc-EFFPLM-NH2; configuration not given here) inactive

Outcome? CCCCCC1CC=CC(=O)O1 (centres undefined) inactive

Tell me the recorded outcome of this test for CC(=O)OCC1OC(OC2CC3C(C)(C)C(=O)CC[C@]3(C)C3CC[C@]45C[C@]4(CCC5[C@@H](C)CC(O)C(O)C(C)(C)O)[C@]23C)C(O)C(O)C1O (some centres undefined) . inactive

Could you please tell me the result logged for "O=C1C(=O)N(c2ccc(Cl)c(Cl)c2)C(=O)C(=O)C1c1nc2ccccc2s1" in this assay? inactive

Name the outcome recorded for "CC(=O)NC1=C(Sc2ccc(Cl)cc2)C(=O)c2ccccc2C1=O" in the assay. inactive

What outcome does the record of this test show for "COc1cc(C[S+]2CCCC2)c(SC)cc1C[S+]1CCCC1" ? inactive

Fill in: this test's call for "CSC(=S)N(C)C" is ___ inactive

For O=C(NC(Cc1ccccc1)P(=O)(O)c1ccccc1)OCc1ccccc1 (centres undefined) , which call appears in the assay record? inactive

Dear all, I need the recorded test outcome for CC(C)(C)C1CCC2c3c([nH]c4ccccc34)C3C(=O)N(c4ccccc4Cl)C(=O)C3C2C1 (centres undefined) , thank you. inactive

Outcome? "CC1(C)CC(=O)c2c(nc3c(ccc4ccccc43)c2-c2ccc(NC(=O)CCC(=O)Nc3ccc(-c4c5c(nc6c4ccc4ccccc46)CC(C)(C)CC5=O)cc3)cc2)C1" inactive

Returns: the outcome recorded for "CCS(=O)(=O)Nc1ccc(Nc2c3ccccc3nc3ccccc23)c(OC)c1" in this assay. active

Called result for O=c1cccc(C2CC(CO)C3CCCCN3C2)[nH]1 (centres undefined) inactive

Please indicate how the test categorized "Cc1cc2cc3c(cc2c(-c2ccc(N)cc2)n1)OCO3" . inactive

# credit: ChEMBL document CHEMBL1201862
